System: HEK-293T
test_method_notes: Multiplex assay against HEK293T
Format: toxicity, cell-based
cond: human, 12 h, 1 µM, compound concentration 1 uM, replicate 1
Population Hoechst High Intensity Objects (%) listing for selected compounds.
Express the reported value numerically, then name its unit.

- compound: "CCc1nn2c(C)cc(C)nc2c1Cc1ccc(-c2nnc(C3CCNCC3)o2)cc1"
  recorded_result: "7%"
- compound: "Cc1cc(=O)n(C)c2cc(N3C(=O)CC[C@H](NS(=O)(=O)CC(C)C)[C@H]3c3ccc(Cl)cc3)ccc12"
  recorded_result: "8%"
- compound: "Cl.Cl.OCCOCCN1CCN(C(c2ccccc2)c2ccc(Cl)cc2)CC1 (centres undefined) [HYDROXYZINE HYDROCHLORIDE]"
  recorded_result: "6%"

Pending compound:
stdin: Observed Population Hoechst High Intensity Objects (%) on HEK-293T for `Cc1cc(NC(=O)NCCN2CCC(O)(Cc3ccccc3)CC2)c2ccccc2n1` , please.
stdout: 6%

* * *

System: HEK-293T
test_method_notes: Multiplex assay against HEK293T
Format: toxicity, cell-based
cond: human, 24 h, 10 µM, compound concentration 10 uM, replicate 1
Y if Population Tubulin-Different-Phenotype (%) is below 30%. N if not; exact matches included in N.

stdin: Hello, is Population Tubulin-Different-Phenotype (%) of the following molecule strictly smaller than 30%? CCn1c(-c2nc3cc(C(=O)N4CCCC(N)C4)ccc3n2C)cc2ccccc21.Cl (stereo not drawn)
stdout: N

stdin: Hello, is Population Tubulin-Different-Phenotype (%) of the following molecule strictly smaller than 30%? `Nc1nc(CC(=O)Nc2ccc(CCNC[C@H](O)c3ccccc3)cc2)cs1`
stdout: Y

stdin: Hello, is Population Tubulin-Different-Phenotype (%) of the following molecule strictly smaller than 30%? `CCCCCCNC(=O)Nc1ccc(S(=O)(=O)Nc2ccc(CCNC[C@H](O)COc3ccc(O)cc3)cc2)cc1`
stdout: N

stdin: Hello, is Population Tubulin-Different-Phenotype (%) of the following molecule strictly smaller than 30%? COCCCN1CCC(NC(=O)c2cc(Cl)c(N)c3c2OCC3)CC1 [PRUCALOPRIDE]
stdout: N

stdin: Hello, is Population Tubulin-Different-Phenotype (%) of the following molecule strictly smaller than 30%? `COc1ccc2[nH]c(I)c(CCNC(C)=O)c2c1`
stdout: Y

stdin: Hello, is Population Tubulin-Different-Phenotype (%) of the following molecule strictly smaller than 30%? `Cc1nn(C)c2nc(NNC(=O)Nc3cc(Cl)nc(Cl)c3)cc(C(C)C)c12`
stdout: N

stdin: Hello, is Population Tubulin-Different-Phenotype (%) of the following molecule strictly smaller than 30%? `COc1ccc2c(c1OCc1ccccc1)C[C@@H](C(=O)O)N(C(=O)C(c1ccccc1)c1ccccc1)C2`
stdout: N

stdin: Hello, is Population Tubulin-Different-Phenotype (%) of the following molecule strictly smaller than 30%? CN1CCN2c3ccccc3Cc3ccccc3C2C1.Cl (stereo not drawn) [MIANSERIN HYDROCHLORIDE]
stdout: N

* * *

Test system: HEK-293T
test_method_notes: Multiplex assay against HEK293T
Format: toxicity, cell-based
cond: human, 24 h, 1 µM, compound concentration 1 uM, replicate 2
condition met if Total Cell Count is below 400. condition not met if not; exact matches included in condition not met.

Sample answers from the record:
- molecule: "C[C@H](NC(=O)CNC(=O)c1cccc(Cl)c1)c1ccccc1"
  classification: "condition not met"
- molecule: "CSc1nc(NC2CCCC2)c([N+](=O)[O-])c(NC2CCCC2)n1 [GS-39783]"
  classification: "condition met"

stdin: Hello, is Total Cell Count of the following molecule strictly smaller than 400? `CN(C)C(=O)Cn1cc(-c2ccc(-c3nnc4ccccn34)cc2)cn1`
stdout: condition not met
